The reported numbers originate from patent US20240409645A1.

assay.system: T1, mouse IL-2Rα (mouse) (UniProt P01590)
T1 sequence (looked up): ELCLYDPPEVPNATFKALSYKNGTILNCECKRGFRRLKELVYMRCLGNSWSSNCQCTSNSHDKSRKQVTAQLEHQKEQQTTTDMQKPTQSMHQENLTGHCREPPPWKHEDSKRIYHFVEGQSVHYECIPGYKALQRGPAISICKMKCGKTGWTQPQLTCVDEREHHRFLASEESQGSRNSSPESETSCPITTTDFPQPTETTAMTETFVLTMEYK
assay.summary: ELISA, P.E. on coated antigen
readout.name: OD (PE binding ELISA) (OD450 nm)

-- ask OD (PE binding ELISA) for FJ1427_P035MP01G04 (VHH) VHH: QVQLVESGGGLVQPGGSLRLSCAASGFTFSNNFMSWVRQAPGKGLEWVSTISYFGDSTRYAESVKGRFTISRDNEKNTLHLQMNNLKPEDTAVYYCAKATSYDSIRSGSRGRGTQVTVSS ?
-- reply 0.047

-- ask Entry FJ1427_P035MP01D04 (VHH) VHH: QVQLVESGGGWVQPGDSLRLSCAASGRSFRNYVMGWFRQVPGKEREFLSVITWLGGTLDADSVADRFTISRDNSKNTVYLQMDSLKPEDTAVYYCAADRGPARYISASDVDYWGQGTQVTVSS : reported OD (PE binding ELISA) = ?
-- reply 0.045

-- ask I am curious: what OD (PE binding ELISA) value has been reported for 3-MP01E03 (VHH) VHH: QVQLVESGGGLVQAGGSLRLSCTASGRTLSSYSMAWFRQAADKGREFVTAISSSGVVTHVLDSVKGRFTISRDNAKNTVYLQMNSLQPEDTALYFCAGTASSYSTYEANYNYWGQGTLVTVSS ?
-- reply 0.046

-- ask What does the record list as OD (PE binding ELISA) for FJ1427_P035MP01E11 (VHH) VHH: QVQLVESGGGLVQPGGSLRLSCAASGFTFSNNFMSWVRQAPGKGLEWVSTISYFGDSTRYAESVKGRFTISRDNEKNTLYLQMNNLKPEDTAVYYCAKATSYDSIRSGSRGRGTQVTVSS ?
-- reply 0.046

-- ask Reported OD (PE binding ELISA) for FJ1427_P035MP01F11 (VHH) VHH: QVQLQESGGGLVQAGDSLRLSCAASGRSFRNYILAWYRQAPGKEREFLAAISWLDGTLYADSVEDRFTISRDNPKNTVHLQMDSLKPEDTAVYYCAADRGPVRPVLAPDVDYWGQGTQVTVSS : what is it?
-- reply 0.047

-- ask For the binder FJ1427_P035MP01B01 (VHH) VHH: EVQLVESGGGWVQAGDSLRLSCAASGRTFRNYVMGWFRQVPGKEREFLSVITSLGGTVYADSVANRFTISRDNPKDTVYLQMDSLKPEDTAVYYCAADRGPARYISASDVDYWGQGTQVTASS , what OD (PE binding ELISA) is on record?
-- reply 0.046

-- ask // OD (PE binding ELISA) lookup, key: FJ1427_P035MP01F02 (VHH) VHH: QVQLQESGGGLVQAGGSLRLSCAASGRTFRTHNMGWFRRAPGKEREFVAAISWNIDNKLYADSVKGRSTISRDNGGNMVFLQMNSLKPEDTAVYYCAADKIPLSSDVAATATEYDDWGQGTQVTVSS
-- reply 0.046

-- ask Please look up its OD (PE binding ELISA): FJ1427_P035MP01B12 (VHH) VHH: QVQLQESGGGLVQAGDSLRLSCAASGRSFRNYILAWYRQAPGKEREFLAAISWLDGTFYANSVEGRFTISRDNPKNTVHLQMDGLKPEDTAVYYCAADRGPVRPVLAPDVDYWGQGTQVTVAS
-- reply 0.046
